Below: a set of entries, each annotated with reported %Inh.
Tested on: AURKA;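 further: KINOMEscan kinase panel screen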
Settings: concentration: 1 μM, replicates: in singlicate; n = 1
MEASURED_ENDPOINT: %Inh (%)

> print(dat)
                                    molecule  measured.endpoint  readout.units  measured.number
 1  Cc1ccc(NC(=O)Nc2ccc(Cl)cc2)cc1-c1ccc(C(=O)Nc2ccncc2)cc1               %Inh              %                0
 2  O=C(Nc1n[nH]c2nc(-c3cccs3)c(Br)cc12)C1CCCC1               %Inh              %               17
 3                CCn1c(-c2ccccc2)nc2cnccc21               %Inh              %                0
 4       CNc1cc(-c2ccc3c(N)n[nH]c3c2)nc(N)n1               %Inh              %                4
 5  Cc1ccc(NC(=O)Nc2ccccc2)cc1-c1ccc(C(=O)Nc2ccncc2)cc1               %Inh              %               15
 6  COC(=O)c1cccc(NC(=O)NC2CCN(c3ccnc(Nc4ccc(OC)cc4)n3)C2)c1 (stereo not shown)               %Inh              %               10
 7  O=C1NC(=O)C(c2ccc(Cl)cc2)=C1Nc1cccc(Cl)c1               %Inh              %                0
 8  COc1ccc(CSc2nnc(-c3ccc4ncsc4c3)o2)cc1C(F)(F)F               %Inh              %                0
 9  CNc1nc(-c2ccc3c(N)n[nH]c3c2)cc(N2C[C@@H](C(=O)NC3CCCCC3)OC[C@H]2C)n1               %Inh              %                9
10  COc1ccc(CSc2nnc(-c3ccc4nccn4c3)o2)cc1C(F)(F)F               %Inh              %                0
11  CC(=O)c1c(C)c2cnc(Nc3ccc(N4CCNCC4)cn3)nc2n(C2CCCC2)c1=O               %Inh              %                0
12  Nc1ncnc2occ(-c3ccc4c(c3)CCN4C(=O)Cc3cc(F)ccc3F)c12               %Inh              %                0
13   COc1ccc(CSc2nnc(-c3ccc4c(c3)CCO4)o2)cc1               %Inh              %                0
14  CC(=O)c1c(C)c2cnc(Nc3ccn(C)n3)nc2n(C2CCCC2)c1=O               %Inh              %                4
15     O=c1cc(N2CCOCC2)nc2n(Cc3ccccc3F)ccn12               %Inh              %                0
16  COc1cccc(NC(=O)Nc2ccc(C)c(-c3ccc(C(=O)Nc4ccncc4)cc3)c2)c1               %Inh              %               14
17               c1ccc(-c2ccnc3[nH]ccc23)cc1               %Inh              %               17
18  CS(=O)(=O)CCNCc1nc(-c2ccc3ncnc(Nc4ccc(OCc5ccccc5)c(Cl)c4)c3c2)cs1.Cl               %Inh              %                0
19           Fc1ccc(-c2nc[nH]c2-c2ccncc2)cc1               %Inh              %                8
